- test-system: Protein farnesyltransferase (Homo sapiens, UniProt P49354+P49356)
- assay-remarks: Inhibition of human FTase after 15 mins by fluorimetric analysis
Where a name gives a salt, the structure may show the parent alone.
result-type: IC50

Ask | Would you mind telling me what IC50 value was observed for C[C@@]12CCC(=O)c3coc(c31)C(=O)c1cc3c(cc12)C(=O)C1=C(C3=O)S(=O)(=O)CCN1 [3-KETOADOCIAQUINONE A] ?
Reply | 4.19 µM

Ask | Also check C[C@@]12CC[C@H](O)[C@@H]3COC(=C31)C(=O)c1cc3c(cc12)C(O)CCC3=O (stereo partly drawn) [XESTOSAPROL A]
Reply | > 30 µM

Ask | Also check C[C@@]12CCC(=O)c3coc(c31)C(=O)c1cc3c(cc12)C(=O)C1=C(NCCS1(=O)=O)C3=O [3-KETOADOCIAQUINONE B]
Reply | 9.27 µM

Ask | Also check C[C@@]12CC[C@H](O)[C@@H]3COC(=C31)C(=O)c1cc3c(cc12)C(=O)CC[C@@H]3O [TETRAHYDROHALENAQUINONE A]
Reply | > 30 µM

Ask | Also check CC1=CCCC2(C)C1=C(O)C(=O)c1cc3c(cc12)C(=O)C=CC3=O (stereo not drawn) [ORHALQUINONE]
Reply | 0.41 µM

Ask | Also check C[C@@]12CCC(=O)c3coc(c31)C(=O)c1cc3c(cc12)C(=O)C=CC3=O [HELENAQUINONE]
Reply | 0.93 µM

Ask | Also check C[C@@]12CCC(=O)c3coc(c31)C(=O)c1cc3c(O)ccc(OS(=O)(=O)O)c3cc12 [HALENAQUINOL SULFATE SODIUM]
Reply | 21.5 µM

Ask | Also check CO[C@]12OC(O)C3=C1[C@@](C)(CCC3=O)c1cc3c(OS(=O)(=O)O)ccc(O)c3cc1C2=O (stereo partly drawn) [XESTOSAPROL C METHYLACETAL]
Reply | 4.34 µM

----------
Kindly state pIC50 for each of the entries shown.
- test-system: Phospholipase A2 (Apis mellifera, UniProt P00630)
- Sequence (P00630 whole entry): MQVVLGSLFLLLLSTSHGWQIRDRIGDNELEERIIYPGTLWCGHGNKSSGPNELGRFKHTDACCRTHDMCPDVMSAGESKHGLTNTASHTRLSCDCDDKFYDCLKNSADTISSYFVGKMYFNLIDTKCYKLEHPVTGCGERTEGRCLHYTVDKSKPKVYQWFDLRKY
Structures can show the parent of a compound that is named as a salt.
// field semantics: pIC50 = negative decimal log of concentration (mol/L)

Ask | Would you mind telling me what pIC50 value was observed for C[C@@]12CCC(=O)c3coc(c31)C(=O)c1cc3c(cc12)C(=O)C1=C(C3=O)S(=O)(=O)CCN1 ?
Reply | 3.85

Ask | Also check C[C@@]12CC[C@H](O)[C@@H]3COC(=C31)C(=O)c1cc3c(cc12)C(=O)CC[C@@H]3O [TETRAHYDROHALENAQUINONE A]
Reply | 3.22

Ask | Also check CO[C@]12OC(O)C3=C1[C@@](C)(CCC3=O)c1cc3c(OS(=O)(=O)O)ccc(O)c3cc1C2=O (some centres undefined)
Reply | 3.24

Ask | Also check C[C@@]12CC[C@H](O)[C@@H]3COC(=C31)C(=O)c1cc3c(cc12)C(O)CCC3=O (some centres undefined)
Reply | 3.00

Ask | Also check C[C@@]12CCC(=O)c3coc(c31)C(=O)c1cc3c(O)ccc(OS(=O)(=O)O)c3cc12 [HALENAQUINOL SULFATE SODIUM]
Reply | 3.00

Ask | Also check C[C@@]12CCC(=O)c3coc(c31)C(=O)c1cc3c(cc12)C(=O)C=CC3=O
Reply | 5.43

Ask | Also check CC1=C(CC/C(C)=C/CCC2=CC[C@H](C3=CC(=O)O[C@H]3O)O[C@H]2O)C(C)(C)CCC1 [MANOALIDE]
Reply | 6.30

Ask | Also check CC1=CCCC2(C)C1=C(O)C(=O)c1cc3c(cc12)C(=O)C=CC3=O (centres undefined)
Reply | 2.80

Ask | Also check C[C@@]12CCC(=O)c3coc(c31)C(=O)c1cc3c(cc12)C(=O)C1=C(NCCS1(=O)=O)C3=O
Reply | 3.98
